Biological target: Lethal factor (Bacillus anthracis)
Assay: Lethal factor protease inhibitors, Bacillus anthracis, multiplex microsphere cleavage assay, validation set (AID 588461)
Conditions: flow cytometry, at 10 µM, stronger effect = higher value
# Lookup of reported inhibition keyed by entry
# number only, unit % dropped from output

O=C(O)CCCCCNC(=O)Nc1ccc2c(c1)OCCO2; -10.1

State the recorded inhibition for this entry: N/C(=N\OC(=O)c1ccc(Br)o1)c1ccccn1
0.7

Tell me the measured inhibition of COc1cc(CC(=O)NCCc2ccc(S(N)(=O)=O)cc2)cc(OC)c1OC , please.
6.5

Which inhibition is listed for O=C(CN1CCN(Cc2ccccc2)CC1)N1CCCc2c1c(=O)oc1ccc(O)cc21 ?
-8.3

Query: inhibition; subject: COc1ccccc1C1C(C#N)=C(N)Oc2c1oc(CO)cc2=O (configuration not stated)
-5.1

// query inhibition value for entry CC(C)c1ccccc1OCCNC(=S)NC(=O)c1cccnc1
2.6

* * *

Tested on: anti-desmoglein-3 scFv antibody binding to human DSG3
Experiment: inhibitors of anti-DSG3 scFv binding to DSG3, pilot screen, biochemical, validation compound set, bead-based, flow cytometry (AID 588368);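 further: signal is the median channel fluorescence of bead-bound GFP antibody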
Details: Protein G beads, DSG3-Fc, scFv-GFP binding, at 10 µM, stronger effect = lower value
ENDPOINT_NAME: binding (% of control) (%)
Record the value in %, omitting the unit from your answer.

Illustrative cases are given below, each with its answer.
C=C1[C@@H](C)[C@H]2[C@H](Cc3ccccc3)NC(=O)[C@]23OC(=O)/C=C/[C@H](O)CCC[C@@H](C)C/C=C/[C@H]3[C@@H]1O; 102
C[N+]1(C)CCN(c2ccccc2)CC1; 100
CN1CCN(C(=O)OC2c3nccnc3C(=O)N2c2ccc(Cl)cn2)CC1 (stereo unspecified); 100
CC12CN3CC(c4ccccc4)(CN(C1)C31CCCCC1)C2=O; 99.5
CC(=O)c1ccc(-c2ccccc2)cc1; 108
O=C1CSC2N1CCNC21CCCCC1 (stereo unspecified); 112
C[C@@H]1O[C@@H](O[C@H]2C[C@@H](O)[C@]3(CO)[C@H]4[C@H](O)C[C@]5(C)[C@@H](C6=CC(=O)OC6)CC[C@]5(O)[C@@H]4CC[C@]3(O)C2)[C@H](O)[C@H](O)[C@H]1O; 101
CCOc1ccc(C2C(C#N)=C(N)Oc3c2c(=O)oc2ccccc32)cc1 (stereo unspecified); 104
COc1ccc(CN2CC3CC(C2)c2cccc(=O)n2C3)cc1OC (stereo unspecified); 100
C#CCN(C)C(C)Cc1ccccc1 (stereo unspecified); 97.2

In the following, a different compound is considered.
Look at this compound and give its reported binding (% of control). CC(C)(C)NCC(O)c1cc(Cl)c(N)c(Cl)c1 (stereo unspecified)
112

* * *

Tested on: Botulinum neurotoxin type F light chain protease (Clostridium botulinum)
Assay: Botulinum neurotoxin type F light chain protease inhibition, multiplex microsphere flow cytometry, validation set (AID 588459)
Details: multiplex microsphere protease substrate cleavage assay, at 10 µM, stronger effect = higher value
ENDPOINT_NAME: inhibition (%)
Hi! Could you send only the number? It should be in %, unit omitted.

O=C(CCSc1ccccc1)N1CCCC1; 1.2
CCCCCCCC(=O)OCC(=O)[C@@]1(O)CC[C@H]2[C@@H]3CCC4=CC(=O)CC[C@]4(C)[C@H]3[C@@H](O)C[C@@]21C; -3.8
CC12CN3CC(c4ccccc4)(CN(C1)C31CCCCC1)C2=O; 2.1

Would you mind telling me what inhibition value was observed for Cc1ccc(S(=O)(=O)NC(=O)NN2CCCCCC2)cc1 ?
-4.6

Report inhibition for Cc1ccc(S(=O)(=O)Oc2ccccc2/C=N/N=C(N)N)cc1 please.
0.8

// query inhibition value for entry CC[C@H]1CN2CCc3cc(OC)c(OC)cc3[C@@H]2C[C@@H]1C[C@H]1NCCc2cc(OC)c(OC)cc21
3.7
